- SYSTEM TESTED: P-gp (Homo sapiens)
- Construct: endogenous in cells; host or cells: Caco-2 cells (cell bank of Chinese Academy of Sciences)
- ASSAY NAME: Inhibition transport study: GM with verapamil (P-gp inhibitor) across Caco-2 cells monolayer
- Format: in vitro ADME
- TEST CONTEXT: human, Caco-2; GM + verapamil; read-out: efflux ratio γ (Papp BL-AP / Papp AP-BL)
- Protocol: As efflux transporters (P-gp and MRP2) are expressed on the apical side of Caco-2 cells, the absorption or efflux transport of indole alkaloids across this model was investigated in the presence of efflux transporters inhibitors. A selective P-gp inhibitor, verapamil (50 μmol), was added to GM. […] The absorption and efflux transport apparent permeability (Papp) of indole alkaloids were determined. […] The efflux ratio (γ) was calculated with the following equation:(4) γ=PappBL-AP/PappAP-BL. […]
Field: efflux ratio. Provide a value for each of the molecules that follow.
Give the value as a plain number.

efflux ratio for CCC1=NC2CC3(C(=O)N(OC)c4ccccc43)C3OCC2C1C3O (stereo not shown) is 1.65

// `C=C[C@@]12CN(C)[C@H]3C[C@]14C(=Nc1ccccc14)[C@H]1C[C@@H]2[C@@H]3CO1` : efflux ratio value = 1.19

Entry C=CC12CN(C)C3C4COC(CC41)C1(C(=O)N(OC)c4ccccc41)C32 (stereo not shown) ; efflux ratio = 1.28

Notebook: `C/C=C1\CN(C)[C@H]2C[C@@]3(C(=O)N(OC)c4ccccc43)[C@H]3C[C@@H]1[C@@H]2CO3` , efflux ratio read as 1.33

---

- SYSTEM TESTED: P-gp (Homo sapiens, UniProt P08183)
- Construct: endogenous in cells; host or cells: Caco-2 cells (cell bank of Chinese Academy of Sciences)
- Sequence (P08183 whole entry): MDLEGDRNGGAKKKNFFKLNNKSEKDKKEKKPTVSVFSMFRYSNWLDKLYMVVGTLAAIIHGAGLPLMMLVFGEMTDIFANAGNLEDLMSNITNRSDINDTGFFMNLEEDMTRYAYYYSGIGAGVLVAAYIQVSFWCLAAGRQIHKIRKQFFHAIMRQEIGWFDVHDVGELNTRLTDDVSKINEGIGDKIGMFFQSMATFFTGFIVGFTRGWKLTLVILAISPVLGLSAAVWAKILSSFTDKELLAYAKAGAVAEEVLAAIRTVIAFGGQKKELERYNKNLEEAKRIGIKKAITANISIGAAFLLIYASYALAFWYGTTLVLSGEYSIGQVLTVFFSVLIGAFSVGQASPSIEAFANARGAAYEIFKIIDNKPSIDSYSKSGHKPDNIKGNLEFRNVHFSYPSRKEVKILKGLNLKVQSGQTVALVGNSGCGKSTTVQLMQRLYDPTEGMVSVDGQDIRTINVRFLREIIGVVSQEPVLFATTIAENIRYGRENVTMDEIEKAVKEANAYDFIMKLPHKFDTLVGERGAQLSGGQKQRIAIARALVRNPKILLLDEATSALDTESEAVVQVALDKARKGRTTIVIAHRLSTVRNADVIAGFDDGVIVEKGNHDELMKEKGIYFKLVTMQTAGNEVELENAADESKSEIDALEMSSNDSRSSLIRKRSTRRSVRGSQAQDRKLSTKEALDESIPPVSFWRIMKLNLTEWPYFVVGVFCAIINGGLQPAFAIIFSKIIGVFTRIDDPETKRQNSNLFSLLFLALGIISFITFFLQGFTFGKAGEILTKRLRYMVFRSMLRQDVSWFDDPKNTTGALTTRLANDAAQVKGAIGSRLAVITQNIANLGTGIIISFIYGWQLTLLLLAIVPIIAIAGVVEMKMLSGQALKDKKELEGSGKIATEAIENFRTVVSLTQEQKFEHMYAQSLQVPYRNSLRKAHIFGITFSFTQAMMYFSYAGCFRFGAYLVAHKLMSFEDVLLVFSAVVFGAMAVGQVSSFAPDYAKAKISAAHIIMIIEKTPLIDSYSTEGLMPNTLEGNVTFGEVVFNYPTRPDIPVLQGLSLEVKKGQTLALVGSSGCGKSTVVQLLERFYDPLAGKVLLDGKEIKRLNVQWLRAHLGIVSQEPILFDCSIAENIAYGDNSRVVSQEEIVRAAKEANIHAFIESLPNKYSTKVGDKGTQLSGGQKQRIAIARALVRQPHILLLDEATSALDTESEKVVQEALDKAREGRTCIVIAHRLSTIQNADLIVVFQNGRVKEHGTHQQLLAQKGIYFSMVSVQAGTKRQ
- ASSAY NAME: Inhibition transport study: GM with verapamil (P-gp inhibitor) across Caco-2 cells monolayer
- Assay type: in vitro ADME
- TEST CONTEXT: human, Caco-2; GM + verapamil (50 μmol); basolateral-to-apical; mean ± SEM, n = 3
Please provide measured Papp B→A for the entries that follow.
The reply should consist of the numeric value with the unit placed after it.

What the record says about C=C[C@@]12CN(C)[C@H]3C[C@]14C(=Nc1ccccc14)[C@H]1C[C@@H]2[C@@H]3CO1 [Koumine, koumine] : Papp B→A is 416 ×10⁻⁶ cm/s

C/C=C1\CN(C)[C@H]2C[C@@]3(C(=O)N(OC)c4ccccc43)[C@H]3C[C@@H]1[C@@H]2CO3 [Humantenine, humantenine] has a reported Papp B→A of 580 ×10⁻⁶ cm/s

The value of Papp B→A measured for the molecule C=CC12CN(C)C3C4COC(CC41)C1(C(=O)N(OC)c4ccccc41)C32 (stereo not shown) [Gelsevirine, gelsevirine] turned out to be 503 ×10⁻⁶ cm/s

Entry CCC1=NC2CC3(C(=O)N(OC)c4ccccc43)C3OCC2C1C3O (stereo not shown) [Humantenidine, humantenidine] ; Papp B→A = 6.17 ×10⁻⁶ cm/s

---

- System: P-gp and MRP2
- ASSAY NAME: Inhibition transport study: GM with ciclosporin (P-gp and MRP2 inhibitor) across Caco-2 cells monolayer
- Assay type: in vitro ADME, Human
- TEST CONTEXT: human, Caco-2; GM + ciclosporin (10 μmol); basolateral-to-apical; mean ± SEM, n = 3
- Experimental: As efflux transporters (P-gp and MRP2) are expressed on the apical side of Caco-2 cells, the absorption or efflux transport of indole alkaloids across this model was investigated in the presence of efflux transporters inhibitors. A selective P-gp inhibitor, verapamil (50 μmol), was added to GM. […] The absorption and efflux transport apparent permeability (Papp) of indole alkaloids were determined. […] The efflux ratio (γ) was calculated with the following equation:(4) γ=PappBL-AP/PappAP-BL. […]
Field: Papp B→A. Provide a value for each of the compounds that follow.
The figure you give is taken to be in ×10⁻⁶ cm/s; do not add the unit.

In plain terms, C/C=C1\CN(C)[C@H]2C[C@@]3(C(=O)N(OC)c4ccccc43)[C@H]3C[C@@H]1[C@@H]2CO3 [Humantenine, humantenine] has a documented Papp B→A of 637

Please fill in: Papp B→A reported for C=CC12CN(C)C3C4COC(CC41)C1(C(=O)N(OC)c4ccccc41)C32 (stereo not shown) [Gelsevirine, gelsevirine] = 614

Value of Papp B→A reported for the compound C=C[C@@]12CN(C)[C@H]3C[C@]14C(=Nc1ccccc14)[C@H]1C[C@@H]2[C@@H]3CO1 [Koumine, koumine] is 524

GET /value?item= CCC1=NC2CC3(C(=O)N(OC)c4ccccc43)C3OCC2C1C3O (stereo not shown) [Humantenidine, humantenidine] &field=Papp B→A returns 7.57

Where do the numbers come from? From paper PMC5662840.
